Values were extracted from patent US20260242478A1.

- STUDY TARGET: T1, Anti-CD28 Fab (SEQ ID NOs: 696, 697)
- T1 construct: In the phage ELISA the Fab was biotinylated and captured on neutravidin coated plates
- T1 sequence (VH, as listed by the source, chain 1 of 2): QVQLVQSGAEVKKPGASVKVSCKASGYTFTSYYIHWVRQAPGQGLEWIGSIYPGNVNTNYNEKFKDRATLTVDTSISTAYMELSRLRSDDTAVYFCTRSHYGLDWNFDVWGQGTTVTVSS
- T1 sequence (VL, as listed by the source, chain 2 of 2): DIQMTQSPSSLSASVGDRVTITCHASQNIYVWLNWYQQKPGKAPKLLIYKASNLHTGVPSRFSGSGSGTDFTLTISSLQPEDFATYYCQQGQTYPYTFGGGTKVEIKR
- PROTOCOL NOTES: phage ELISA; Fab-coated wells pre-incubated with CD28 antigen as competitor, anti-M13-HRP detection
REPORTED METRIC: Phage binding ELISA, Anti-CD28 Fab signal in the presence of CD28

# BINDER, MEASURED VALUE
records = [
    ("YCDGHLPIYMTQCL (Tested as clonal phage supernatant) [Phage-721]", 0.08),
    ("YCDGHLGIYMTKCL (Tested as clonal phage supernatant) [Phage-718]", 0.08),
    ("YCVGHLPQYMEKCL (Tested as clonal phage supernatant) [Phage-717]", 0.08),
    ("YCEGHLAEYMDKCL (Tested as clonal phage supernatant) [Phage-722]", 0.07),
    ("YCDGHSDQYMWKCL (Tested as clonal phage supernatant) [Phage-711]", 0.11),
    ("YCDGHLPQYMSKCL (Tested as clonal phage supernatant) [Phage-712]", 0.1),
    ("YCDGHMPQYMSKCL (Tested as clonal phage supernatant) [Phage-716]", 0.08),
]
